tested on: KB tumor-bearing athymic nude mice; assay: Biodistribution of 177Lu-RedFols in KB tumor-bearing mice; assay type: in vivo, mouse; details: 4 h p.i.
ENDPOINT: Kidneys, accumulated activity
Answers without a unit are incomplete; give the number and then its unit.

{"MOLECULE": "CN1c2c(nc(N)[nH]c2=O)NC[C@H]1CNc1ccc(C(=O)N[C@@H](CCC(=O)N[C@@H](CCCCNC(=O)CN2CCN(CC(=O)O)CCN(CC(=O)O)CCN(CC(=O)O)CC2)C(=O)N[C@@H](CCCCNC(=O)c2ccc(CNC(=O)CCCc3ccc(I)cc3)cc2)C(=O)O)C(=O)O)cc1 [[^177Lu]Lu-6R-RedFol-3, metal not drawn]", "Kidneys, accumulated activity": "7.6 ± 0.4 % IA/g"}
{"MOLECULE": "CN1c2c(nc(N)[nH]c2=O)NC[C@H]1CNc1ccc(C(=O)N[C@@H](CCC(=O)N[C@@H](CCCCNC(=O)CN2CCN(CC(=O)O)CCN(CC(=O)O)CCN(CC(=O)O)CC2)C(=O)N[C@@H](CCCCNC(=O)c2ccc(CNC(=O)CCCCc3ccc(I)cc3)cc2)C(=O)O)C(=O)O)cc1 [[^177Lu]Lu-6R-RedFol-25, metal not drawn]", "Kidneys, accumulated activity": "39 ± 2 % IA/g"}
{"MOLECULE": "CN1c2c(nc(N)[nH]c2=O)NCC1CNc1ccc(C(=O)NC(CCC(=O)NC(CCCCNC(=O)CN2CCN(CC(=O)[O-])CCN(CC(=O)[O-])CCN(CC(=O)[O-])CC2)C(=O)NC(CCCCNC(=O)c2ccc(CNC(=O)CCCc3ccc(I)cc3)cc2)C(=O)O)C(=O)O)cc1.[177Lu+3] (stereo not drawn) [[^177Lu]Lu-6S-RedFol-3]", "Kidneys, accumulated activity": "11 ± 2 % IA/g"}
{"MOLECULE": "CN1c2c(nc(N)[nH]c2=O)NC[C@H]1CNc1ccc(C(=O)N[C@@H](CCC(=O)N[C@@H](CCCCNC(=O)CN2CCN(CC(=O)O)CCN(CC(=O)O)CCN(CC(=O)O)CC2)C(=O)N[C@@H](CCCCNC(=O)CCCCc2ccc(I)cc2)C(=O)O)C(=O)O)cc1 [[^177Lu]Lu-6R-RedFol-24, metal not drawn]", "Kidneys, accumulated activity": "57 ± 5 % IA/g"}

Exercise: Item under review: CN1c2c(nc(N)[nH]c2=O)NCC1CNc1ccc(C(=O)NC(CCC(=O)NC(CCCCNC(=O)CN2CCN(CC(=O)[O-])CCN(CC(=O)[O-])CCN(CC(=O)[O-])CC2)C(=O)NC(CCCCNC(=O)c2ccc(CNC(=O)CCCCc3ccc(I)cc3)cc2)C(=O)O)C(=O)O)cc1.[177Lu+3] (stereo not drawn) [[^177Lu]Lu-6S-RedFol-25] . Reported Kidneys, accumulated activity?
Solution: 88 ± 23 % IA/g

====

system: KB tumor-bearing athymic nude mice; test: Biodistribution of 177Lu-RedFols in KB tumor-bearing mice; format: in vivo, mouse; settings: 1 h p.i.
The entries below are paired with their reported Tumor-to-kidney ratio.

Below, 4 compounds whose answers are already recorded.
{"COMPOUND": "CN1c2c(nc(N)[nH]c2=O)NC[C@H]1CNc1ccc(C(=O)N[C@@H](CCC(=O)N[C@@H](CCCCNC(=O)CN2CCN(CC(=O)O)CCN(CC(=O)O)CCN(CC(=O)O)CC2)C(=O)N[C@@H](CCCCNC(=O)CCCCc2ccc(I)cc2)C(=O)O)C(=O)O)cc1 [[^177Lu]Lu-6R-RedFol-24, metal not drawn]", "TESTED ON": "KB tumor-bearing athymic nude mice", "Tumor-to-kidney ratio": "0.48 ± 0.02"}
{"COMPOUND": "CN1c2c(nc(N)[nH]c2=O)NC[C@H]1CNc1ccc(C(=O)N[C@@H](CCC(=O)N[C@@H](CCCCNC(=O)CN2CCN(CC(=O)O)CCN(CC(=O)O)CCN(CC(=O)O)CC2)C(=O)N[C@@H](CCCCNC(=O)c2ccc(CNC(=O)CCCCc3ccc(I)cc3)cc2)C(=O)O)C(=O)O)cc1 [[^177Lu]Lu-6R-RedFol-25, metal not drawn]", "TESTED ON": "KB tumor-bearing athymic nude mice", "Tumor-to-kidney ratio": "0.67 ± 0.07"}
{"COMPOUND": "CN1c2c(nc(N)[nH]c2=O)NCC1CNc1ccc(C(=O)NC(CCC(=O)NC(CCCCNC(=O)CN2CCN(CC(=O)[O-])CCN(CC(=O)[O-])CCN(CC(=O)[O-])CC2)C(=O)NC(CCCCNC(=O)c2ccc(CNC(=O)CCCc3ccc(I)cc3)cc2)C(=O)O)C(=O)O)cc1.[177Lu+3] (stereo not drawn) [[^177Lu]Lu-6S-RedFol-3]", "TESTED ON": "KB tumor-bearing athymic nude mice", "Tumor-to-kidney ratio": "0.66 ± 0.09"}
{"COMPOUND": "CN1c2c(nc(N)[nH]c2=O)NCC1CNc1ccc(C(=O)NC(CCC(=O)NC(CCCCNC(=O)CN2CCN(CC(=O)[O-])CCN(CC(=O)[O-])CCN(CC(=O)[O-])CC2)C(=O)NC(CCCCNC(=O)c2ccc(CNC(=O)CCCCc3ccc(I)cc3)cc2)C(=O)O)C(=O)O)cc1.[177Lu+3] (stereo not drawn) [[^177Lu]Lu-6S-RedFol-25]", "TESTED ON": "KB tumor-bearing athymic nude mice", "Tumor-to-kidney ratio": "0.45 ± 0.02"}

Now turn to the next compound.
Exercise: Item under review: CN1c2c(nc(N)[nH]c2=O)NC[C@H]1CNc1ccc(C(=O)N[C@@H](CCC(=O)N[C@@H](CCCCNC(=O)CN2CCN(CC(=O)O)CCN(CC(=O)O)CCN(CC(=O)O)CC2)C(=O)N[C@@H](CCCCNC(=O)c2ccc(CNC(=O)CCCc3ccc(I)cc3)cc2)C(=O)O)C(=O)O)cc1 [[^177Lu]Lu-6R-RedFol-3, metal not drawn] . Reported Tumor-to-kidney ratio?
Solution: 1.1 ± 0.1

====

assay: Radiolytic stability of 177Lu-DOTA-ALBs in PBS (HPLC); assay type: physicochemical; details: without L-ascorbic acid, 24 h, room temperature, 100 MBq/500 µL PBS
The entries below are paired with their reported Intact radioligand.
Quick note: give the figure in %, leave out the unit.

{"COMPOUND": "O=C(O)CN1CCN(CC(=O)O)CCN(CC(=O)NCCC(=O)N[C@@H](CCCCNC(=O)CCCc2ccc(I)cc2)C(=O)O)CCN(CC(=O)O)CC1.[177Lu] [[^177Lu]Lu-DOTA-ALB-1]", "UOM": "%", "Intact radioligand": 51}
{"COMPOUND": "O=C(O)CN1CCN(CC(=O)O)CCN(CC(=O)NCCC(=O)N[C@@H](CCCCNC(=O)c2ccc(CNC(=O)CCCc3ccc(I)cc3)cc2)C(=O)O)CCN(CC(=O)O)CC1.[177Lu] [[^177Lu]Lu-DOTA-ALB-3]", "UOM": "%", "Intact radioligand": 39}
{"COMPOUND": "O=C(O)CN1CCN(CC(=O)O)CCN(CC(=O)NCCC(=O)N[C@@H](CCCCNC(=O)CCCCc2ccc(I)cc2)C(=O)O)CCN(CC(=O)O)CC1.[177Lu] [[^177Lu]Lu-DOTA-ALB-24]", "UOM": "%", "Intact radioligand": 39}

Now turn to the next compound.
Exercise: Item under review: O=C(O)CN1CCN(CC(=O)O)CCN(CC(=O)NCCC(=O)N[C@@H](CCCCNC(=O)c2ccc(CNC(=O)CCCCc3ccc(I)cc3)cc2)C(=O)O)CCN(CC(=O)O)CC1.[177Lu] [[^177Lu]Lu-DOTA-ALB-25] . Reported Intact radioligand?
Solution: 41

====

test system: KB tumor-bearing athymic nude mice; assay: Biodistribution of 177Lu-RedFols in KB tumor-bearing mice; type: in vivo, mouse; conditions: 4 h p.i.
The entries below are paired with their reported Tumor-to-kidney ratio.

{"COMPOUND": "CN1c2c(nc(N)[nH]c2=O)NC[C@H]1CNc1ccc(C(=O)N[C@@H](CCC(=O)N[C@@H](CCCCNC(=O)CN2CCN(CC(=O)O)CCN(CC(=O)O)CCN(CC(=O)O)CC2)C(=O)N[C@@H](CCCCNC(=O)CCCCc2ccc(I)cc2)C(=O)O)C(=O)O)cc1 [[^177Lu]Lu-6R-RedFol-24, metal not drawn]", "Tumor-to-kidney ratio": "0.59 ± 0.04"}
{"COMPOUND": "CN1c2c(nc(N)[nH]c2=O)NCC1CNc1ccc(C(=O)NC(CCC(=O)NC(CCCCNC(=O)CN2CCN(CC(=O)[O-])CCN(CC(=O)[O-])CCN(CC(=O)[O-])CC2)C(=O)NC(CCCCNC(=O)c2ccc(CNC(=O)CCCCc3ccc(I)cc3)cc2)C(=O)O)C(=O)O)cc1.[177Lu+3] (stereo not drawn) [[^177Lu]Lu-6S-RedFol-25]", "Tumor-to-kidney ratio": "0.37 ± 0.05"}

Now turn to the next compound.
Exercise: Form field: Tumor-to-kidney ratio recorded for CN1c2c(nc(N)[nH]c2=O)NC[C@H]1CNc1ccc(C(=O)N[C@@H](CCC(=O)N[C@@H](CCCCNC(=O)CN2CCN(CC(=O)O)CCN(CC(=O)O)CCN(CC(=O)O)CC2)C(=O)N[C@@H](CCCCNC(=O)c2ccc(CNC(=O)CCCc3ccc(I)cc3)cc2)C(=O)O)C(=O)O)cc1 [[^177Lu]Lu-6R-RedFol-3, metal not drawn] with KB tumor-bearing athymic nude mice (enter value)
Solution: 2.4 ± 0.2
